Value source: patent US20260083865A1

molecular target: PSMA-expressing C4-2 cells (Homo sapiens, UniProt Q04609); construct: PSMA-expressing C4-2 cells (ATCC, Cat. No. CRL-3314) were cultured in RPMI-1640; host or cells: C4-2 cells; test: FACS binding assay (competition with 50 nM PSM-0183); settings: pIC50 category of FACS binding, C4-2 cells; read-out: pIC50 [C4-2] CAT (converted)
Sequence (Q04609 whole entry): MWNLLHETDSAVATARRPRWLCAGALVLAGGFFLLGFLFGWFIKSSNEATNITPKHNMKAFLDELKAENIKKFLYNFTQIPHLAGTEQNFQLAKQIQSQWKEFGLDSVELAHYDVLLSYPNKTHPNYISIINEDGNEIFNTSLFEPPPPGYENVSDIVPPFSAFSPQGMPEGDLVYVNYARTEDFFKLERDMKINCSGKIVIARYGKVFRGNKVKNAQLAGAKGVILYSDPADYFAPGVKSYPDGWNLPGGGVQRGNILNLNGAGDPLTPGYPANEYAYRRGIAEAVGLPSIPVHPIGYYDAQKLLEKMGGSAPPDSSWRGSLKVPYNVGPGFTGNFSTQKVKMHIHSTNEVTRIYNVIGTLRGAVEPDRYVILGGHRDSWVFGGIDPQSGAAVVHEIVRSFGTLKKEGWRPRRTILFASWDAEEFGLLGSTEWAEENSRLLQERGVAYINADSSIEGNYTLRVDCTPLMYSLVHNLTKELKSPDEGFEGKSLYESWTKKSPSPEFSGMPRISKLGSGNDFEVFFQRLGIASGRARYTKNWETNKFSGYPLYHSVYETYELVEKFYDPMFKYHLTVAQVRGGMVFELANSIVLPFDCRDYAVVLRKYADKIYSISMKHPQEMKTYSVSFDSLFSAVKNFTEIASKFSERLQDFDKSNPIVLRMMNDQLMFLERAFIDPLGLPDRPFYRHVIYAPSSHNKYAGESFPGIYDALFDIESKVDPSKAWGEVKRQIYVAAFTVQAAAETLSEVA
Numbered stars: 1 amine (or outer) side, 2 acyl side, 3 side chain; on linkers, the order of the positions; unused ones are H or OH. Bridge positions count the residues as written; N and C are the ends. Square brackets hold non-standard residues; d marks the D form. Side chains are listed from the residue outwards. Peptide text beside a SMILES is read from it. * marks the point of attachment. X3 = O=C(O)CN1CCN(CC(=O)O)CCN(CC(=O)NCCCOCCOCCOCCCN*)CCN(CC(=O)O)CC1; DOTA = O=C(O)CN1CCN(CC(=O)O)CCN(CC(=O)*)CCN(CC(=O)O)CC1; Phe(4-Cl) = N[C@@H](Cc1ccc(Cl)cc1)C(=O)O; hPhe = N[C@@H](CCc1ccccc1)C(=O)O; X1 = O=C(CC1CCN([*:1])CC1)[*:2]; NMeK = CN[C@@H](CCCCN)C(=O)O; Suc = O=C(CCC(=O)[*:2])[*:1]; Tle = CC(C)(C)[C@H](N)C(=O)O; 4Amb = NCc1ccc(C(=O)O)cc1; Nle = CCCC[C@H](N)C(=O)O; Aib = CC(C)(N)C(=O)O; βAla = NCCC(=O)O
assay_readout: IC50

Here is how some molecules turned out for IC50.
molecule	result
C[C@@H](O)[C@H](NC(=O)[C@@H](NC(=O)[C@@H]1CSSC[C@H](NC(=O)[C@H](Cc2ccc(Cl)cc2)NC(=O)C(C)(C)NC(=O)[C@@H](NC(=O)CC2CCN(C(=O)CN3CCN(CC(=O)O)CCN(CC(=O)O)CCN(CC(=O)O)CC3)CC2)[C@@H](C)O)C(=O)N(C)[C@@H](CCCCN)C(=O)N[C@@H](CCCNC(=N)N)C(=O)NC(C)(C)C(=O)N[C@@H](CC(N)=O)C(=O)N1)C(C)(C)C)C(N)=O [PSM-0548] ({DOTA}-[X1]T[Aib][Phe(4-Cl)]C[NMeK]R[Aib]NC[Tle]T-NH2; disulfide 5-10)	200 to 1260 nM
CC(=O)N[C@H](C(=O)NC(C)(C)C(=O)N[C@@H](CCc1ccccc1)C(=O)N[C@H]1CSSC[C@@H](C(=O)N[C@H](C(=O)N[C@H](C(N)=O)[C@@H](C)O)C(C)(C)C)NC(=O)[C@H](CC(N)=O)NC(=O)C(C)(C)NC(=O)[C@H](CCCNC(=N)N)NC(=O)[C@H](CCCCN)NC1=O)[C@@H](C)O [PSM-0411] (Ac-T[Aib][hPhe]CKR[Aib]NC[Tle]T-NH2; disulfide 4-9)	< 200 nM
CC(=O)N[C@H](C(=O)NC(C)(C)C(=O)N[C@@H](Cc1ccc(Cl)cc1)C(=O)N[C@H]1CSSC[C@@H](C(=O)N[C@H](C(N)=O)C(C)(C)C)NC(=O)[C@H](CC(N)=O)NC(=O)C(C)(C)NC(=O)[C@H](CCCNC(=N)N)NC(=O)[C@H](CCCCN)NC1=O)[C@@H](C)O [PSM-0367] (Ac-T[Aib][Phe(4-Cl)]CKR[Aib]NC[Tle]-NH2; disulfide 4-9)	< 200 nM
CCCC[C@H](NC(=O)[C@@H]1CSSC[C@H](NC(=O)[C@H](Cc2ccccc2)NC(=O)[C@H](C)NC(=O)[C@@H](NC(C)=O)[C@@H](C)O)C(=O)N[C@@H](CCCCN)C(=O)N[C@@H](CCCNC(=N)N)C(=O)N[C@H](C)C(=O)N[C@@H](CC(N)=O)C(=O)N1)C(=O)N[C@H](C(=O)N[C@@H](CC(=O)O)C(N)=O)[C@@H](C)O	1260 to 3160 nM
CC(=O)N[C@H](C(=O)NC(C)(C)C(=O)N[C@@H](Cc1ccccc1)C(=O)N[C@H]1CSSC[C@@H](C(=O)N[C@H](C(=O)N[C@H](C(N)=O)[C@@H](C)O)C(C)(C)C)NC(=O)[C@@H](CC(N)=O)NC(=O)C(C)(C)NC(=O)[C@H](CCCNC(=N)N)NC(=O)[C@H](CCCCN)NC1=O)[C@@H](C)O [PSM-0402] (Ac-T[Aib]FCKR[Aib][dN]C[Tle]T-NH2; disulfide 4-9)	< 200 nM

# IC50 measured on PSMA-expressing C4-2 cells (Homo sapiens, UniProt Q04609) for item `CCCC[C@H](NC(=O)[C@@H]1CSSC[C@H](NC(=O)[C@H](Cc2ccccc2)NC(=O)[C@@H](C)NC(=O)[C@@H](NC(C)=O)[C@@H](C)O)C(=O)N[C@@H](CCCCN)C(=O)N[C@@H](CCCNC(=N)N)C(=O)N[C@@H](C)C(=O)N[C@@H](CC(N)=O)C(=O)N1)C(=O)N[C@H](C(=O)N[C@@H](CC(=O)O)C(N)=O)[C@@H](C)O` = 1260 to 3160 nM

# IC50 measured on PSMA-expressing C4-2 cells (Homo sapiens, UniProt Q04609) for item CCCC[C@H](NC(=O)[C@@H]1CSSC[C@H](NC(=O)[C@H](Cc2ccccc2)NC(=O)[C@H](C)NC(=O)[C@@H](NC(C)=O)[C@@H](C)O)C(=O)N[C@@H](C)C(=O)N[C@@H](CCCNC(=N)N)C(=O)N[C@@H](C)C(=O)N[C@@H](CC(N)=O)C(=O)N1)C(=O)N[C@H](C(=O)N[C@@H](CC(=O)O)C(N)=O)[C@@H](C)O [PSM-0475] (Ac-TAFCARANC[Nle]TD-NH2; disulfide 4-9) = 1260 to 3160 nM

# IC50 measured on PSMA-expressing C4-2 cells (Homo sapiens, UniProt Q04609) for item C[C@@H](O)[C@H](NC(=O)CN1CCN(CC(=O)O)CCN(CC(=O)O)CCN(CC(=O)O)CC1)C(=O)NC(C)(C)C(=O)N[C@@H](Cc1ccccc1)C(=O)N[C@H]1CSSC[C@@H](C(=O)N[C@H](C(=O)NCCC(N)=O)C(C)(C)C)NC(=O)[C@H](CC(N)=O)NC(=O)C(C)(C)NC(=O)[C@H](CCCNC(=N)N)NC(=O)[C@H](CCCCN)NC1=O [PSM-0539] ({DOTA}-T[Aib]FCKR[Aib]NC[Tle][βAla]-NH2; disulfide 4-9) = < 200 nM

# IC50 measured on PSMA-expressing C4-2 cells (Homo sapiens, UniProt Q04609) for item CC(C)(NC(=O)c1ccc(CNC(=O)CN2CCN(CC(=O)O)CCN(CC(=O)O)CCN(CC(=O)O)CC2)cc1)C(=O)N[C@@H](Cc1ccc(Cl)cc1)C(=O)N[C@H]1CSSC[C@@H](C(=O)N[C@H](C(N)=O)C(C)(C)C)NC(=O)[C@H](CC(N)=O)NC(=O)C(C)(C)NC(=O)[C@H](CCCNC(=N)N)NC(=O)[C@H](CCCCN)NC1=O [PSM-0381] ({DOTA-4Amb}-[Aib][Phe(4-Cl)]CKR[Aib]NC[Tle]-NH2; disulfide 3-8) = < 200 nM

# IC50 measured on PSMA-expressing C4-2 cells (Homo sapiens, UniProt Q04609) for item CC(=O)N[C@H](C(=O)NC(C)(C)C(=O)N[C@@H](Cc1ccccc1)C(=O)N[C@H]1CSSC[C@@H](C(=O)N[C@H](C(=O)N[C@H](C(N)=O)[C@@H](C)O)C(C)(C)C)NC(=O)[C@H](CC(N)=O)NC(=O)[C@H](CCCCNC(=O)CCC(=O)NCCCOCCOCCOCCCNC(=O)CN2CCN(CC(=O)O)CCN(CC(=O)O)CCN(CC(=O)O)CC2)NC(=O)[C@H](CCCNC(=N)N)NC(=O)[C@H](CCCCN)NC1=O)[C@@H](C)O [PSM-0465] (Ac-T[Aib]FCKRK([Suc-X3])NC[Tle]T-NH2; disulfide 4-9) = < 200 nM
